Target: T1, human CD71 extracellular domain (human, UniProt P02786 89-760, biotinylated)
T1 construct: also called hCD71; CD71-ECD
T1 sequence (P02786 89-760): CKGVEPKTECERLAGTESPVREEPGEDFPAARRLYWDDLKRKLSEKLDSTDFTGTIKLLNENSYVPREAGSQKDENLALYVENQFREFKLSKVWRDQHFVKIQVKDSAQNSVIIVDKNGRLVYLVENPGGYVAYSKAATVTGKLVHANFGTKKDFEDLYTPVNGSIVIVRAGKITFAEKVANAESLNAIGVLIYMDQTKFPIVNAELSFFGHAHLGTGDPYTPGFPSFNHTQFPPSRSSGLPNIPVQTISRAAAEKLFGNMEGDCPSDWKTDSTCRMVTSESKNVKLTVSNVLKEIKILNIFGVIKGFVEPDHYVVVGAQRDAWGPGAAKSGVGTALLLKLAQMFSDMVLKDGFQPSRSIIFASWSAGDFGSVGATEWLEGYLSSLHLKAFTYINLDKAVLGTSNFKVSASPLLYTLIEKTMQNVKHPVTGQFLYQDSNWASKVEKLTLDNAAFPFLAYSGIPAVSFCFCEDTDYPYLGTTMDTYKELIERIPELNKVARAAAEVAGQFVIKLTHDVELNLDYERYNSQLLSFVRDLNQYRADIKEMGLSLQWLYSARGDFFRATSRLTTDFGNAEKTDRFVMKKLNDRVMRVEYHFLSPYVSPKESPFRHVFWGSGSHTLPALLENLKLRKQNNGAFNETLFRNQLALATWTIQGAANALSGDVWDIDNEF
Test: primary ELISA; further: test concentration or dose not given here
QUANTITY_MEASURED: RLU
Write the numeric value and follow it with the unit.

Example results:
>>> reported_value("CD71-binding FN3 domain of SEQ ID NO: 451 (designed binder) MLPAPKNLVVSRVTEDSARLSWTAPDAAFDSFFIGYLEPQPPGEAIGLLVPGSERSYDLTGLKPGTEYNVTIQGVKGGFPSIPLVADFTT")
"5.23e+06 RLU"
>>> reported_value("CD71-binding FN3 domain of SEQ ID NO: 522 (designed binder) MLPAPKNLVVSRVTEDSARLSWTAPDAAFDSFFIGYLEPQPPGEAITLYVPGSERSYDLNGLKPGTEYNVTIQGVKGGFPSMPLSAIFTT")
"3.91e+06 RLU"
>>> reported_value("CD71-binding FN3 domain of SEQ ID NO: 484 (designed binder) MLPAPKNLVVSRVTEDSARLSWTAPDAAFDSFEIAYQELSLWGEAIVLTVPGSERSYDLTGLKPGTEYYVHIGGVKGGIWSSPLSAISTT")
"1.47e+06 RLU"

Prompt line: # lookup: RLU of CD71-binding FN3 domain of SEQ ID NO: 468 (designed binder) MLPAPKNLVVSRVTEDSARLSWTAPDAAFDSFLIQYDEEGVWGEAIVLTVPGSERSYDLTGLKPGTEYSVGIGGVKGGWSSVPLSAIFTT
Response line: 1.05e+06 RLU
